Where do these numbers come from? They come from PubChem BioAssay (NCI).

- Test system: ACHN renal
- Test description: NCI tumour cell line growth inhibition, 48 h
Measured property: TGI

Solved entries (count: 3):
>>> endpoint_result("O=S(=O)(NNc1ccccc1)c1ccccc1")
"15.8 µM"
>>> endpoint_result("COc1ccc(CN2c3ccccc3Sc3ccccc32)c(C(F)(F)F)c1")
"> 100 µM"
>>> endpoint_result("COc1ccc2c3c([nH]c2c1)CCN(CCCC(=O)c1ccc(F)cc1)C3")
"30.8 µM"

Go through the items and report each one's TGI.
1. N/C(=N\N=C\c1ccc(C(F)(F)F)cc1)NO
2. COc1ccc2c(c1)nc(C(=O)c1ccco1)c(C(F)(F)F)[n+]2[O-]
3. CC1/C(=N\O)CC(c2ccccc2)N(C)C1c1ccccc1 (stereo unspecified)
4. C[N+](C)(C)CC(=O)N/N=C(/C(=O)Nc1ccc(Br)cc1)C1C(=O)NC(=O)NC1=O
5. CC(C)(C)c1ccc(Oc2ccc(N)cn2)cc1
6. CC1CC/C(=C\c2ccc(F)cc2)C(=O)/C1=C/c1ccc(F)cc1 (stereo unspecified)
7. O=C(Nc1cccc(O)c1)c1ccc(NC2=C(Cl)C(=O)N(Cc3ccc(Cl)cc3Cl)C2=O)cc1
8. CCCCCCCCCCCCCCC(O)C[N+](C)(CCO)CCO (stereo unspecified)

25.6 µM
> 100 µM
> 100 µM
> 100 µM
> 100 µM
13.6 µM
3.21 µM
21.7 µM

State recorded TGI for all listed molecules.
1. COc1cc2c(c(O)c1OC)CC1CCC(=O)N1C2c1cccc2ccccc12 (stereo unspecified)
2. CCOC(=O)c1cc2c(cc1Cl)SC(=Nc1ccccc1)N(S(=O)(=O)c1ccc(Cl)cc1)S2(=O)=O

1: > 100 µM; 2: 28.8 µM

Each molecule below has a recorded value; state its TGI.
1. O=C(/C=C\c1ccc([N+](=O)[O-])cc1)c1ccccc(=O)c1O
2. Cc1cccc(C)c1NC(=O)C1=NC(=S)NC(c2ccccc2)C1c1nc2ccccc2s1 (stereo unspecified)
3. Cc1cc(S(=O)(=O)Nc2nnc3cnc4ccccc4n23)c(S)cc1Cl
4. NC(=O)c1ccccc1[N+](=O)[O-]

["2.85 µM", "> 100 µM", "> 100 µM", "> 100 µM"]

Answer for every listed entry: what is its TGI? The entries follow.
1. COc1ccc2c(c1OC)CO[C@@H]2[C@H]1c2c(cc3c(c2OC)OCO3)CCN1S(=O)(=O)c1cn(C)cn1
2. S=c1[nH]n2c(CCCCCCCCc3nnc4sc(=S)[nH]n34)nnc2s1
3. O=C(CCC=C(S(=O)(=O)c1ccccc1)S(=O)(=O)c1ccccc1)c1ccccc1
4. NC(CSSCC(N)=NCC12CC3CC(CC(C3)C1)C2)=NCC12CC3CC(CC(C3)C1)C2

["> 100 µM", "> 100 µM", "20 µM", "26.6 µM"]
